Measured on: NTCP (Homo sapiens)
Sequence (Q14973 1-349): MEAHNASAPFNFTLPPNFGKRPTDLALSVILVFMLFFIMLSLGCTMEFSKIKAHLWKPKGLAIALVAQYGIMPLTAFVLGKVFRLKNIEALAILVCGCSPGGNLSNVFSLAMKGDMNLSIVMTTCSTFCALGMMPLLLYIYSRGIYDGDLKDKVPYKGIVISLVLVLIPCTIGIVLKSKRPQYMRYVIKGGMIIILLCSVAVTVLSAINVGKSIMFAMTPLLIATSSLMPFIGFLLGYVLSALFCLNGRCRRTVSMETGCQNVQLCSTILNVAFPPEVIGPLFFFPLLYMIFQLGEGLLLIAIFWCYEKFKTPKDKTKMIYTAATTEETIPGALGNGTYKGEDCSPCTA
Method description: [3H]-TCA uptake assay (NTCP inhibition)
Assay type: cell-based
Conditions used: IC50, given as a range, marked * (asterisk not explained)
pIC50: −log10 of the molar value.
Listing of entries alongside the reported pIC50.

>>> reported("CCC1NC(=O)C(C2OC(Oc3cccc(OCc4ccccn4)c3)CC2C)N(C)C(=O)C(C(C)C)N(C)C(=O)C(CC(C)C)N(C)C(=O)C(CC(C)C)N(C)C(=O)C(C)NC(=O)C(C)NC(=O)C(CC(C)C)N(C)C(=O)C(C(C)C)NC(=O)C(CC(C)C)N(C)C(=O)CN(C)C1=O (centres unmarked) [Compound 52A-o]")
"4.00 to 6.00"

Exercise: # input molecule: CCC1NC(=O)C(C2OC(Oc3c(OC)cccc3OC)CC2C)N(C)C(=O)C(C(C)C)N(C)C(=O)C(CC(C)C)N(C)C(=O)C(CC(C)C)N(C)C(=O)C(C)NC(=O)C(C)NC(=O)C(CC(C)C)N(C)C(=O)C(C(C)C)NC(=O)C(CC(C)C)N(C)C(=O)CN(C)C1=O (centres unmarked) [Compound 36A-o] ; wanted: its pIC50
Key: 4.00 to 6.00

====

Listing of entries alongside the reported pIC50.
Measured on: NTCP (Homo sapiens, UniProt Q14973)
Method description: [3H]-TCA uptake assay (NTCP inhibition)
Type: cell-based
Conditions used: IC50, given as a range, marked * (asterisk not explained)
Description: [^3H]-TCA uptake assay. PTH and HepG2-NTCP cells were cultured in PMM for 24 hours to induce NTCP expression. After treated by DMSO or test compounds for 2 hours, the cells were then incubated with 1 μM [^3H]-taurocholate acid dissolved in Na^+ Ringer's buffer (the concentration of Na was 145 mM) for 15 minutes at 37° C. Subsequently, the cells were washed once in phosphate-buffered saline (PBS) and lysed in 50 μL 1% TritonX-100 in H2O for 5 minutes at room temperature. […]
pIC50: −log10 of the molar value.

>>> reported("CCC1NC(=O)C(C2OC(SCc3cc(Cl)c(Cl)cc3Cl)CC2C)N(C)C(=O)C(C(C)C)N(C)C(=O)C(CC(C)C)N(C)C(=O)C(CC(C)C)N(C)C(=O)C(C)NC(=O)C(C)NC(=O)C(CC(C)C)N(C)C(=O)C(C(C)C)NC(=O)C(CC(C)C)N(C)C(=O)CN(C)C1=O (centres unmarked)")
"4.00 to 6.00"

Exercise: Identify the measured pIC50 of CCC1NC(=O)C(C2OC(Oc3cccc(OCC4CC4)c3)CC2C)N(C)C(=O)C(C(C)C)N(C)C(=O)C(CC(C)C)N(C)C(=O)C(CC(C)C)N(C)C(=O)C(C)NC(=O)C(C)NC(=O)C(CC(C)C)N(C)C(=O)C(C(C)C)NC(=O)C(CC(C)C)N(C)C(=O)CN(C)C1=O (centres unmarked) [Compound 32A-o] for NTCP (Homo sapiens, UniProt Q14973).
Key: 4.00 to 6.00

====

Measured on: NTCP (Homo sapiens)
Method description: [3H]-TCA uptake assay (NTCP inhibition)
Assay type: cell-based
Conditions used: IC50, given as a range; assay not given
pIC50: −log10 of the molar value.
Measured attribute: pIC50

>>> reported("CCC1NC(=O)C(C2OC(Sc3ccc(CN4CCN(C)CC4)cc3)CC2C)N(C)C(=O)C(C(C)C)N(C)C(=O)C(CC(C)C)N(C)C(=O)C(CC(C)C)N(C)C(=O)C(C)NC(=O)C(C)NC(=O)C(CC(C)C)N(C)C(=O)C(C(C)C)NC(=O)C(CC(C)C)N(C)C(=O)CN(C)C1=O (centres unmarked) [Compound 7A]")
"5.00 to 6.00"
>>> reported("CCC1NC(=O)C(C2OC(Sc3c(OC)cccc3OC)CC2C)N(C)C(=O)C(C(C)C)N(C)C(=O)C(CC(C)C)N(C)C(=O)C(CC(C)C)N(C)C(=O)C(C)NC(=O)C(C)NC(=O)C(CC(C)C)N(C)C(=O)C(C(C)C)NC(=O)C(CC(C)C)N(C)C(=O)CN(C)C1=O (centres unmarked) [Compound 36A]")
"5.00 to 6.00"
>>> reported("CCC1NC(=O)C(C2OC(OCc3cccc(S(=O)(=O)NCC(C)C)c3)CC2C)N(C)C(=O)C(C(C)C)N(C)C(=O)C(CC(C)C)N(C)C(=O)C(CC(C)C)N(C)C(=O)C(C)NC(=O)C(C)NC(=O)C(CC(C)C)N(C)C(=O)C(C(C)C)NC(=O)C(CC(C)C)N(C)C(=O)CN(C)C1=O (centres unmarked) [Compound 76A]")
"5.00 to 6.00"
>>> reported("CCC1NC(=O)C(C2OC(Sc3ccccc3)CC2C)N(C)C(=O)C(C(C)C)N(C)C(=O)C(CC(C)C)N(C)C(=O)C(CC(C)C)N(C)C(=O)C(C)NC(=O)C(C)NC(=O)C(CC(C)C)N(C)C(=O)C(C(C)C)NC(=O)C(CC(C)C)N(C)C(=O)CN(C)C1=O (centres unmarked) [Compound 1B]")
"4.00 to 6.00"

Continue with the compound presented below.
Exercise: # input compound: CCC1NC(=O)C(C2OC(OCc3ccc(OCCN(C)C)cc3)CC2C)N(C)C(=O)C(C(C)C)N(C)C(=O)C(CC(C)C)N(C)C(=O)C(CC(C)C)N(C)C(=O)C(C)NC(=O)C(C)NC(=O)C(CC(C)C)N(C)C(=O)C(C(C)C)NC(=O)C(CC(C)C)N(C)C(=O)CN(C)C1=O (centres unmarked) [Compound 87A] ; wanted: its pIC50
Key: 5.00 to 6.00

====

Measured on: NTCP (Homo sapiens, UniProt Q14973)
Sequence (Q14973 1-349): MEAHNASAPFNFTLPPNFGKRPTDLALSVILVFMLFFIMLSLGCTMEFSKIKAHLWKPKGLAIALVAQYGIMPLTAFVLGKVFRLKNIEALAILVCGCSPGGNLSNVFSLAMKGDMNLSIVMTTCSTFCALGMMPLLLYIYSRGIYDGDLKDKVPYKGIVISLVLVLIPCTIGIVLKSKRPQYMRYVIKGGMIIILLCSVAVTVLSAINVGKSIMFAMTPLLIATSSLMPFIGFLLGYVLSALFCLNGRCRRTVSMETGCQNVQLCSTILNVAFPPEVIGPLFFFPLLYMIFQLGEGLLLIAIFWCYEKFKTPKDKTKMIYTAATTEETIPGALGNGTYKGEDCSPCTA
Method description: [3H]-TCA uptake assay (NTCP inhibition)
Type: cell-based
Conditions used: given as a range; assay not given
Measured attribute: IC50

>>> reported("CCC1NC(=O)C(C2OC(Sc3cccc(OCc4ccc5c(c4)OCO5)c3)CC2C)N(C)C(=O)C(C(C)C)N(C)C(=O)C(CC(C)C)N(C)C(=O)C(CC(C)C)N(C)C(=O)C(C)NC(=O)C(C)NC(=O)C(CC(C)C)N(C)C(=O)C(C(C)C)NC(=O)C(CC(C)C)N(C)C(=O)CN(C)C1=O (centres unmarked) [Compound 18A]")
"1 to 1000 nM"

Exercise: # input molecule: CCC1NC(=O)C(C2OC(Sc3cc(OC)cc(OCc4ccc(F)cc4)c3)CC2C)N(C)C(=O)C(C(C)C)N(C)C(=O)C(CC(C)C)N(C)C(=O)C(CC(C)C)N(C)C(=O)C(C)NC(=O)C(C)NC(=O)C(CC(C)C)N(C)C(=O)C(C(C)C)NC(=O)C(CC(C)C)N(C)C(=O)CN(C)C1=O (centres unmarked) [Compound 60A] ; wanted: its IC50
Key: 1 to 1000 nM

Exercise: # input molecule: CCC1NC(=O)C(C2OC(OCc3ccccc3)CC2C)N(C)C(=O)C(C(C)C)N(C)C(=O)C(CC(C)C)N(C)C(=O)C(CC(C)C)N(C)C(=O)C(C)NC(=O)C(C)NC(=O)C(CC(C)C)N(C)C(=O)C(C(C)C)NC(=O)C(CC(C)C)N(C)C(=O)CN(C)C1=O (centres unmarked) [Compound 74A] ; wanted: its IC50
Key: 1 to 1000 nM

====

Measured on: NTCP (Homo sapiens, UniProt Q14973)
Method description: [3H]-TCA uptake assay (NTCP inhibition)
Format: cell-based
Conditions used: given as a range; assay not given
Measured attribute: IC50

These solved cases illustrate the format of a correct answer.
>>> reported("CCC1NC(=O)C(C2OC(OC(C)c3ccc(Cl)c(Cl)c3)CC2C)N(C)C(=O)C(C(C)C)N(C)C(=O)C(CC(C)C)N(C)C(=O)C(CC(C)C)N(C)C(=O)C(C)NC(=O)C(C)NC(=O)C(CC(C)C)N(C)C(=O)C(C(C)C)NC(=O)C(CC(C)C)N(C)C(=O)CN(C)C1=O (single isomer, unassigned) [Compound 97A]")
"1 to 1000 nM"
>>> reported("CCC1NC(=O)C(C2OC(Sc3cc(OC)cc(OC)c3)CC2C)N(C)C(=O)C(C(C)C)N(C)C(=O)C(CC(C)C)N(C)C(=O)C(CC(C)C)N(C)C(=O)C(C)NC(=O)C(C)NC(=O)C(CC(C)C)N(C)C(=O)C(C(C)C)NC(=O)C(CC(C)C)N(C)C(=O)CN(C)C1=O (stereo not shown) [Compound 38A]")
"1 to 1000 nM"
>>> reported("CCC1NC(=O)C(C2OC(Sc3cccc(OCc4ccc(CN(C)C)cc4)c3)CC2C)N(C)C(=O)C(C(C)C)N(C)C(=O)C(CC(C)C)N(C)C(=O)C(CC(C)C)N(C)C(=O)C(C)NC(=O)C(C)NC(=O)C(CC(C)C)N(C)C(=O)C(C(C)C)NC(=O)C(CC(C)C)N(C)C(=O)CN(C)C1=O (stereo not shown) [Compound 13A]")
"1 to 1000 nM"

Exercise: # input compound: CCC1NC(=O)C(C2OC(Sc3cccc(OC(C)c4ccccc4)c3)CC2C)N(C)C(=O)C(C(C)C)N(C)C(=O)C(CC(C)C)N(C)C(=O)C(CC(C)C)N(C)C(=O)C(C)NC(=O)C(C)NC(=O)C(CC(C)C)N(C)C(=O)C(C(C)C)NC(=O)C(CC(C)C)N(C)C(=O)CN(C)C1=O (stereo not shown) [Compound 34A] ; wanted: its IC50
Key: 1 to 1000 nM

Exercise: # input compound: CCC1NC(=O)C(C2OC(Sc3cccc(OCc4ccccc4)c3)CC2C)N(C)C(=O)C(C(C)C)N(C)C(=O)C(CC(C)C)N(C)C(=O)C(CC(C)C)N(C)C(=O)C(C)NC(=O)C(C)NC(=O)C(CC(C)C)N(C)C(=O)C(C(C)C)NC(=O)C(CC(C)C)N(C)C(=O)CN(C)C1=O (stereo not shown) [Compound 12A] ; wanted: its IC50
Key: 1 to 1000 nM

Exercise: # input compound: CCC1NC(=O)C(C2OC(OCc3ccccc3Cl)CC2C)N(C)C(=O)C(C(C)C)N(C)C(=O)C(CC(C)C)N(C)C(=O)C(CC(C)C)N(C)C(=O)C(C)NC(=O)C(C)NC(=O)C(CC(C)C)N(C)C(=O)C(C(C)C)NC(=O)C(CC(C)C)N(C)C(=O)CN(C)C1=O (stereo not shown) [Compound 84A] ; wanted: its IC50
Key: 1 to 1000 nM

Exercise: # input compound: CCC1NC(=O)C(C2OC(SCc3cc(Cl)cc(Cl)c3)CC2C)N(C)C(=O)C(C(C)C)N(C)C(=O)C(CC(C)C)N(C)C(=O)C(CC(C)C)N(C)C(=O)C(C)NC(=O)C(C)NC(=O)C(CC(C)C)N(C)C(=O)C(C(C)C)NC(=O)C(CC(C)C)N(C)C(=O)CN(C)C1=O (stereo not shown) [Compound 91A-s] ; wanted: its IC50
Key: 1 to 1000 nM
